In this section we review reported Ki values for a set of compounds.
target: ColG-CU (Hathewaya histolytica, UniProt Q9X721); assay: biochemical; assay type: biochemical, C. histolyticum
Sequence (Q9X721 111-786): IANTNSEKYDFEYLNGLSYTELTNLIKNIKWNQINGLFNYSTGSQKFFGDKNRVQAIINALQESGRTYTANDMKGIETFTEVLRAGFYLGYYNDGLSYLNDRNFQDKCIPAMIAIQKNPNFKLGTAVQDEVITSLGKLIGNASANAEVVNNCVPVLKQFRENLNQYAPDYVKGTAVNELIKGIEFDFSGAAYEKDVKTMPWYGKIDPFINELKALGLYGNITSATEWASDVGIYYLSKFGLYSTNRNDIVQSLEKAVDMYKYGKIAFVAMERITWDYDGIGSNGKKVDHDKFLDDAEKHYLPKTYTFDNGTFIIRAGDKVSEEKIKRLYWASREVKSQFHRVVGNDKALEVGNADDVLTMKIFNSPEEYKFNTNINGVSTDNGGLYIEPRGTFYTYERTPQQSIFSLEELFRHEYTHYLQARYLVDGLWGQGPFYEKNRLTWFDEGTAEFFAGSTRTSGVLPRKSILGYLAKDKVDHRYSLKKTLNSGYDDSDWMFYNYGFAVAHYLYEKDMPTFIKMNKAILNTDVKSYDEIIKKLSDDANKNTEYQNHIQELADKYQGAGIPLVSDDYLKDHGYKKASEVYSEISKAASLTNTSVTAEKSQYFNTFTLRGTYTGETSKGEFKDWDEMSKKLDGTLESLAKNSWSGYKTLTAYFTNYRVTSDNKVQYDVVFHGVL
measuredQuantity: Ki (µM)

> print(dat)
                                   compound  measuredquantity  unitstring  numericreadout
1  CC(=O)Nc1ccccc1OCc1cn(CCNC(=O)C(Cc2ccccc2)C(=O)NO)nn1 (centres unmarked)                Ki          µM            18.4
2  CC(=O)Nc1ccccc1OCc1cn(CCNC(=O)C(CC(C)C)C(=O)NO)nn1 (centres unmarked)                Ki          µM              31

====

biological target: ColH-PD (Hathewaya histolytica, UniProt Q46085); assay: biochemical; assay type: biochemical, C. histolyticum; settings: 100 μM; read-out: Percent inhibition of ColH-PD
Sequence (Q46085 331-721 limits assumed): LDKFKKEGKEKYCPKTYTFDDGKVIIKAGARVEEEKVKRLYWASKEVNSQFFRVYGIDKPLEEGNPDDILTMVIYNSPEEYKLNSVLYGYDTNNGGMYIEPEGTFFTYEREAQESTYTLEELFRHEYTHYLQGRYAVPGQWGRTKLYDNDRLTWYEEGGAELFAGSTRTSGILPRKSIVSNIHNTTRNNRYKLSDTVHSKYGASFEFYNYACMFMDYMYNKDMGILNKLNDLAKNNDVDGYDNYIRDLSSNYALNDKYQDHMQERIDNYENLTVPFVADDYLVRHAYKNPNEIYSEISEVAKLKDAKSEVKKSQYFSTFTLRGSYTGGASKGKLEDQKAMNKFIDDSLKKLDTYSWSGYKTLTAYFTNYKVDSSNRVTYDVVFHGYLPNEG
measuredQuantity: inhibition at 100 µM

> print(dat)
                                   compound      measuredquantity  result
1  O=P(O)(O)c1nc2ccc(-c3ccc(Cl)cc3)cc2nc1P(=O)(O)O  inhibition at 100 µM     97%
2  O=C(Nc1ccc(Cl)c(Cl)c1)c1ccc2nc(P(=O)(O)O)c(P(=O)(O)O)nc2c1  inhibition at 100 µM     96%
3  O=P([O-])(O)C(Sc1ccc(Cl)cc1)P(=O)([O-])O.[Na+].[Na+] [Tiludronate disodium, reference compound]  inhibition at 100 µM     91%
4  CC(=O)Nc1ccccc1OCc1cn(CCNC(=O)C(CC(C)C)C(=O)NO)nn1 (centres unmarked)  inhibition at 100 µM     84%
5  O=P(O)(O)c1nc2cc(Cl)c(Cl)cc2nc1P(=O)(O)O  inhibition at 100 µM     83%

====

molecular target: ColA-CU (Bacillus cereus); test: biochemical; format: biochemical, B. cereus strain ATCC14579; conditions: 100 μM; read-out: Percent inhibition of ColA-CU
Sequence (Q81BJ6 93-764): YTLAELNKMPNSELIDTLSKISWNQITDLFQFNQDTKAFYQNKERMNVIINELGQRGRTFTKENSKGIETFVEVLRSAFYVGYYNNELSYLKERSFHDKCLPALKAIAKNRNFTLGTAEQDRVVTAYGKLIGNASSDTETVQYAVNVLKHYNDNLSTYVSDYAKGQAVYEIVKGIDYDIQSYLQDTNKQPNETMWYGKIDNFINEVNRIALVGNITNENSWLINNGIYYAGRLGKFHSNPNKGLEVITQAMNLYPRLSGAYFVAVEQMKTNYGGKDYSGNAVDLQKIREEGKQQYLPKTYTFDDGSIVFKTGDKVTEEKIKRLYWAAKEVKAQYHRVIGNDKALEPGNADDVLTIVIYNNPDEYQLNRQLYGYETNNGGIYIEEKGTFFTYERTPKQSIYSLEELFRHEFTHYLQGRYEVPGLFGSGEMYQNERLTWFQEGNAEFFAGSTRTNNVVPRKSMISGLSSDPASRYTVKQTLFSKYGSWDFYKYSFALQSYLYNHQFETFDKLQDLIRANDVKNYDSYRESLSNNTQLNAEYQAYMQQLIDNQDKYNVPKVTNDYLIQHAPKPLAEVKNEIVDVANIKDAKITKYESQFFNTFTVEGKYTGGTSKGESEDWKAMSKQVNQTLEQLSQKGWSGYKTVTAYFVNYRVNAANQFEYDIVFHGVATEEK
Some compounds, each annotated with its measured inhibition at 100 µM.
measuredQuantity: inhibition at 100 µM (%)

> print(dat)
                                   compound                 measuredon  numericreadout
1  O=C(Nc1ccc(Cl)c(Cl)c1)c1ccc2nc(P(=O)(O)O)c(P(=O)(O)O)nc2c1 [Compound 14]  ColA-CU (Bacillus cereus)              82
2  O=P(O)(O)c1nc2cc(Cl)c(Cl)cc2nc1P(=O)(O)O [Compound 13]  ColA-CU (Bacillus cereus)              71
3  CC(=O)Nc1ccccc1OCc1cn(CCNC(=O)C(CC(C)C)C(=O)NO)nn1 (centres unmarked) [Compound 27]  ColA-CU (Bacillus cereus)              93
4  O=P(O)(O)c1nc2ccc(-c3ccc(Cl)cc3)cc2nc1P(=O)(O)O [Compound 15]  ColA-CU (Bacillus cereus)              86
5  O=P([O-])(O)C(Sc1ccc(Cl)cc1)P(=O)([O-])O.[Na+].[Na+] [Tiludronate disodium, reference compound]  ColA-CU (Bacillus cereus)              72

====

Form field: Ki (one value per entry).
target: UniProtKB B9J3S4; assay: biochemical; set-up: species or system B. cereus strain Q1
Sequence (B9J3S4 94-765 limits assumed): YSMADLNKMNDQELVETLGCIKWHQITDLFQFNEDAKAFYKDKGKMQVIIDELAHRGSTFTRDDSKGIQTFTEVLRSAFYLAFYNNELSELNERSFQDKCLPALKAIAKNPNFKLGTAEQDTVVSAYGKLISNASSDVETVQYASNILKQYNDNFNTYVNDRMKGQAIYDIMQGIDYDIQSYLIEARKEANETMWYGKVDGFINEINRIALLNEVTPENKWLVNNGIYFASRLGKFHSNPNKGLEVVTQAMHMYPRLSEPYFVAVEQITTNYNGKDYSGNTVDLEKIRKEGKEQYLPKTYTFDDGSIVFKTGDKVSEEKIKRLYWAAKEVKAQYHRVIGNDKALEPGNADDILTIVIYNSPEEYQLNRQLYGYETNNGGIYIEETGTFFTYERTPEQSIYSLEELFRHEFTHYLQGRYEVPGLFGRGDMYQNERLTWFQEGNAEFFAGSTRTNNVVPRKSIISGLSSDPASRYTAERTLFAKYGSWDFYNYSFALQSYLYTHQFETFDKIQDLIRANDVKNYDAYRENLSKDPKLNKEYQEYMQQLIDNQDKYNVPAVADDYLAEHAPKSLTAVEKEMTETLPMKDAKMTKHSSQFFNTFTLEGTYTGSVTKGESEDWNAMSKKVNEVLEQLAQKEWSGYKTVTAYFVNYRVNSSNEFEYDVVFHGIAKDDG
measuredQuantity: Ki (µM)

> print(dat)
                                   compound  unitstring  numericreadout
1  CC(=O)Nc1ccccc1OCc1cn(CCNC(=O)C(CC(C)C)C(=O)NO)nn1 (centres unmarked) [Compound 27]          µM             0.1
2  CC(=O)Nc1ccccc1OCc1cn(CCNC(=O)C(Cc2ccccc2)C(=O)NO)nn1 (centres unmarked) [Compound 33]          µM            0.82
